- System: LG0567-F671-PDC complex spheroids viability
- Assay Explanation: Anticancer human tumor LG0567-F671-PDC patient-derived lung adenocarcinoma cell line growth inhibition [RAS]
- Condition Label: second compound 0.3 µM; first compound 0.00316 µM; stronger effect = lower value
- From the text: RAS pathway inhibitors in Combinations in Complex Spheroids A high-throughput screen of multi-cell type tumor spheroids was designed to identify active combinations of RAS pathway inhibitors and targeted small molecules. Complex spheroids include a stromal component modeled by human endothelial cells (HUVEC) and fibroblasts modeled by human mesenchymal stem cells (MSCs). […] Compounds. […] If the clinical Cmax for an agent had not been determined, the highest concentration tested was 10 microM. […]
Could you please report measured viability, T/C for the items listed next?
Numbers only, in %.

CC(C)n1nc(-c2ccc3oc(N)nc3c2)c2c(N)ncnc21 + CCn1c(-c2cc(N3CCN(C)CC3)cnc2C(C)OC)c2c3cc(ccc31)-c1csc(n1)CC(NC(=O)C1CC1C)C(=O)N1CCCC(N1)C(=O)OCC(C)(C)C2 = 1.81
Nc1ccn(C2OC(CO)C(O)C2(F)F)c(=O)n1 (configuration not stated) + CCn1c(-c2cc(N3CCN(C)CC3)cnc2C(C)OC)c2c3cc(ccc31)-c1csc(n1)CC(NC(=O)C1CC1C)C(=O)N1CCCC(N1)C(=O)OCC(C)(C)C2 = 2.59
O=C(c1ccc(F)c(F)c1Nc1ccc(I)cc1F)N1CC(O)([C@@H]2CCCCN2)C1 + CCn1c(-c2cccnc2C(C)OC)c2c3cc(ccc31)N1CCOC(CC(NC(=O)C(C(C)C)N(C)C(=O)C3(F)CCN(C(=O)C#CC(C)(C)N(C)C)CC3)C(=O)N3CCCC(N3)C(=O)OCC(C)(C)C2)C1 = 7.33

Batch request: viability, T/C per item, same order as input.
1. C=CC(=O)N1CCN(c2nc(OCC3CCCN3C)nc3c(F)c(-c4nc(N)cc(C)c4C(F)(F)F)c(Cl)cc23)C(C)C1 (configuration not stated) + CCn1c(-c2cc(N3CCN(C)CC3)cnc2C(C)OC)c2c3cc(ccc31)-c1csc(n1)CC(NC(=O)C1CC1C)C(=O)N1CCCC(N1)C(=O)OCC(C)(C)C2
2. C=CC(=O)Nc1cc(Nc2nccc(-c3cn(C)c4ccccc34)n2)c(OC)cc1N(C)CCN(C)C + CCn1c(-c2cc(N3CCN(C)CC3)cnc2C(C)OC)c2c3cc(ccc31)-c1csc(n1)CC(NC(=O)C1CC1C)C(=O)N1CCCC(N1)C(=O)OCC(C)(C)C2
3. CCN1CCN(Cc2ccc(Nc3ncc(F)c(-c4cc(F)c5nc(C)n(C(C)C)c5c4)n3)nc2)CC1 + CCn1c(-c2cc(N3CCN(C)CC3)cnc2C(C)OC)c2c3cc(ccc31)-c1csc(n1)CC(NC(=O)C1CC1C)C(=O)N1CCCC(N1)C(=O)OCC(C)(C)C2
4. CCN1CCN(Cc2ccc(Nc3ncc(F)c(-c4cc(F)c5nc(C)n(C(C)C)c5c4)n3)nc2)CC1 + CCn1c(-c2cccnc2C(C)OC)c2c3cc(ccc31)N1CCOC(CC(NC(=O)C(C(C)C)N(C)C(=O)C3(F)CCN(C(=O)C#CC(C)(C)N(C)C)CC3)C(=O)N3CCCC(N3)C(=O)OCC(C)(C)C2)C1
5. CC(C)n1nc(-c2ccc3oc(N)nc3c2)c2c(N)ncnc21 + CCn1c(-c2cccnc2C(C)OC)c2c3cc(ccc31)N1CCOC(CC(NC(=O)C(C(C)C)N(C)C(=O)C3(F)CCN(C(=O)C#CC(C)(C)N(C)C)CC3)C(=O)N3CCCC(N3)C(=O)OCC(C)(C)C2)C1
6. C=CC(=O)Nc1cc(Nc2nccc(-c3cn(C)c4ccccc34)n2)c(OC)cc1N(C)CCN(C)C + CCn1c(-c2cccnc2C(C)OC)c2c3cc(ccc31)N1CCOC(CC(NC(=O)C(C(C)C)N(C)C(=O)C3(F)CCN(C(=O)C#CC(C)(C)N(C)C)CC3)C(=O)N3CCCC(N3)C(=O)OCC(C)(C)C2)C1
7. O=C(c1ccc(F)c(F)c1Nc1ccc(I)cc1F)N1CC(O)([C@@H]2CCCCN2)C1 + CCn1c(-c2cc(N3CCN(C)CC3)cnc2C(C)OC)c2c3cc(ccc31)-c1csc(n1)CC(NC(=O)C1CC1C)C(=O)N1CCCC(N1)C(=O)OCC(C)(C)C2

1. 2.73
2. 2.71
3. 3.07
4. 10.5
5. 8.57
6. 12.4
7. 1.58

Batch request: viability, T/C per item, same order as input.
1. C=CC(=O)N1CCN(c2nc(OCC3CCCN3C)nc3c(F)c(-c4nc(N)cc(C)c4C(F)(F)F)c(Cl)cc23)C(C)C1 (configuration not stated) + CCn1c(-c2cccnc2C(C)OC)c2c3cc(ccc31)N1CCOC(CC(NC(=O)C(C(C)C)N(C)C(=O)C3(F)CCN(C(=O)C#CC(C)(C)N(C)C)CC3)C(=O)N3CCCC(N3)C(=O)OCC(C)(C)C2)C1
2. Nc1ccn(C2OC(CO)C(O)C2(F)F)c(=O)n1 (configuration not stated) + CCn1c(-c2cccnc2C(C)OC)c2c3cc(ccc31)N1CCOC(CC(NC(=O)C(C(C)C)N(C)C(=O)C3(F)CCN(C(=O)C#CC(C)(C)N(C)C)CC3)C(=O)N3CCCC(N3)C(=O)OCC(C)(C)C2)C1

1: 9.04; 2: 10.6

###

- Tested on: LG0567-F671-PDC complex spheroids viability
- Assay Explanation: Anticancer human tumor LG0567-F671-PDC cell line growth inhibition [RAS];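 further: spheroids exposed to compound for seven days before readout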
- Condition Label: second compound 0.000949 µM; first compound 0.003 µM; stronger effect = lower value
Could you please report measured viability, T/C for the items listed next?
One number for each entry, in %.

CCc1c2c(nc3ccc(O)cc13)-c1cc3c(c(=O)n1C2)COC(=O)[C@]3(O)CC + CCn1c(-c2cc(N3CCN(C)CC3)cnc2C(C)OC)c2c3cc(ccc31)-c1csc(n1)CC(NC(=O)C1CC1C)C(=O)N1CCCC(N1)C(=O)OCC(C)(C)C2 = 19.2
CC1(C)CCC(Nc2ncc(C(F)(F)F)c(-c3c[nH]c4c(P(C)(C)=O)c(C#N)ccc34)n2)CN1 (centres undefined) + CCn1c(-c2cc(N3CCN(C)CC3)cnc2C(C)OC)c2c3cc(ccc31)-c1csc(n1)CC(NC(=O)C1CC1C)C(=O)N1CCCC(N1)C(=O)OCC(C)(C)C2 = 17.4
CCc1c2c(nc3ccc(O)cc13)-c1cc3c(c(=O)n1C2)COC(=O)[C@]3(O)CC + CCn1c(-c2cccnc2C(C)OC)c2c3cc(ccc31)N1CCOC(CC(NC(=O)C(C(C)C)N(C)C(=O)C3(F)CCN(C(=O)C#CC(C)(C)N(C)C)CC3)C(=O)N3CCCC(N3)C(=O)OCC(C)(C)C2)C1 = 13.3

Param readout = viability, T/C; param system = LG0567-F671-PDC complex spheroids viability; param query = CC1(C)CCC(Nc2ncc(C(F)(F)F)c(-c3c[nH]c4c(P(C)(C)=O)c(C#N)ccc34)n2)CN1 (centres undefined) + CCn1c(-c2cccnc2C(C)OC)c2c3cc(ccc31)N1CCOC(CC(NC(=O)C(C(C)C)N(C)C(=O)C3(F)CCN(C(=O)C#CC(C)(C)N(C)C)CC3)C(=O)N3CCCC(N3)C(=O)OCC(C)(C)C2)C1 ; response: value
12.4

###

- Test system: LG0567-F671-PDC complex spheroids viability
- Assay Explanation: Anticancer human tumor LG0567-F671-PDC cell line growth inhibition [RAS];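 further: spheroids exposed to compound for seven days before readout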
- Condition Label: second compound 0.01 µM; first compound 10 µM; stronger effect = lower value
Could you please report measured viability, T/C for the items listed next?

Some compounds with recorded viability, T/C:
CC(Nc1ccc2c(c1)OCCn1cc(N3C(=O)OCC3C(F)F)nc1-2)C(N)=O (stereo not drawn) + C=CC(=O)N1CCN(c2nc(OCC3CCCN3C)nc3c(F)c(-c4nc(N)cc(C)c4C(F)(F)F)c(Cl)cc23)C(C)C1 = 4.79%
CCC(CC)c1cc(NC2CCC(N)C2)n2nccc2n1 (stereo not drawn) + C=CC(=O)N1CCN(c2nc(OCC3CCCN3C)nc3c(F)c(-c4nc(N)cc(C)c4C(F)(F)F)c(Cl)cc23)C(C)C1 = 0.45%
CC1(O)CCCC1n1c(=O)c(C(F)F)cc2cnc(NC3CCN(S(C)(=O)=O)CC3)nc21 (stereo not drawn) + C=CC(=O)N1CCN(c2nc(OCC3CCCN3C)nc3c(F)c(-c4nc(N)cc(C)c4C(F)(F)F)c(Cl)cc23)C(C)C1 = 15.1%

Batch request: viability, T/C per item, same order as input.
1. Cc1nc(N2CCC3(CC2)COC(C)C3N)c(CO)nc1Sc1ccnc(N)c1Cl (stereo not drawn) + C=CC(=O)N1CCN(c2nc(OCC3CCCN3C)nc3c(F)c(-c4nc(N)cc(C)c4C(F)(F)F)c(Cl)cc23)C(C)C1
2. CC(=O)OC12COC1CC(O)C1(C)C(=O)C(O)C3=C(C)C(OC(=O)C(O)C(NC(=O)OC(C)(C)C)c4ccccc4)CC(O)(C(OC(=O)c4ccccc4)C21)C3(C)C (stereo not drawn) + C=CC(=O)N1CCN(c2nc(OCC3CCCN3C)nc3c(F)c(-c4nc(N)cc(C)c4C(F)(F)F)c(Cl)cc23)C(C)C1

["2.84%", "9.61%"]

Batch request: viability, T/C per item, same order as input.
1. C[C@@H](NC(=O)c1ncnc(N)c1Cl)c1ncc(C(=O)Nc2cc(C(F)(F)F)c(Cl)cn2)s1 + C=CC(=O)N1CCN(c2nc(OCC3CCCN3C)nc3c(F)c(-c4nc(N)cc(C)c4C(F)(F)F)c(Cl)cc23)C(C)C1
2. CC(C)NCC(C(=O)N1CCN(c2ncnc3c2C(C)CC3O)CC1)c1ccc(Cl)cc1 (stereo not drawn) + C=CC(=O)N1CCN(c2nc(OCC3CCCN3C)nc3c(F)c(-c4nc(N)cc(C)c4C(F)(F)F)c(Cl)cc23)C(C)C1
3. NC1c2ccccc2OC12CCN(c1cnc3c(N4CCCc5ncccc54)n[nH]c3n1)CC2 (stereo not drawn) + C=CC(=O)N1CCN(c2nc(OCC3CCCN3C)nc3c(F)c(-c4nc(N)cc(C)c4C(F)(F)F)c(Cl)cc23)C(C)C1

["20.4%", "8.55%", "2.64%"]
